method-summary: in vitro
protocol-conditions: chlorocebus aethiops
Entries and their measured CC50 follow.
quantity: CC50

Cc1ccc(NC(=O)c2nccnc2C(=O)Nc2ccc(C)cc2-c2cc(C)n[nH]2)cc1 : > 117 µM
Cc1ccc(NC(=O)c2nccnc2C(=O)Nc2ccc(F)cc2)c(-c2ccsc2)c1 : > 116 µM
Cc1ccc(NC(=O)c2nccnc2C(=O)Nc2ccc(F)cc2)c(-c2cc(C)n[nH]2)c1 : > 116 µM
Cc1ccc(NC(=O)c2ccccc2C(=O)Nc2ccc(F)cc2)c(-c2cc(C)n[nH]2)c1 : > 117 µM
Cc1ccc(NC(=O)c2ccccc2NC(=O)c2ccc(F)cc2)c(-c2ccc(C)s2)c1 [13b] : > 113 µM
O=C(NCc1ccc(-c2ccsc2)cc1)c1nccnc1C(=O)Nc1ccc(F)cc1 : > 116 µM
Cc1ccc(NC(=O)c2ccccc2C(=O)NCc2ccc(-c3ccsc3)cc2)cc1 : > 117 µM
Cc1ccc(NC(=O)c2ccccc2C(=O)Nc2ccc(F)cc2)c(-c2ccc(C)s2)c1 : > 113 µM
Cc1ccc(NC(=O)c2nccnc2C(=O)NCc2ccc(-c3ccsc3)cc2)cc1 : > 117 µM
Cc1ccc(NC(=O)c2nccnc2C(=O)Nc2ccc(C)cc2-c2cccs2)cc1 : > 117 µM
Cc1ccc(NC(=O)c2ccccc2NC(=O)c2ccc(F)cc2)c(-c2ccncc2)c1 [13c] : > 117 µM
Cc1cc(-c2ccccc2NC(=O)c2nccnc2C(=O)Nc2ccc(F)cc2)[nH]n1 : > 120 µM
Cc1ccc(NC(=O)c2ccccc2C(=O)Nc2ccc(C)cc2-c2cc(C)n[nH]2)cc1 : > 117 µM
Cc1ccc(NC(=O)c2ccccc2C(=O)Nc2ccc(F)cc2)c(-c2cccs2)c1 : > 117 µM
Cc1cc(-c2ccccc2NC(=O)c2ccccc2C(=O)Nc2ccc(F)cc2)[nH]n1 : > 120 µM
Cc1ccc(NC(=O)c2ccccc2NC(=O)c2ccc(F)cc2)c(-c2cccnc2)c1 [13d] : > 117 µM
Cc1ccc(NC(=O)c2ccccc2C(=O)Nc2ccc(C)cc2-c2ccc(C)s2)cc1 : > 114 µM
Cc1ccc(NC(=O)c2ccccc2NC(=O)c2ccc(F)cc2)c(-c2ccsc2)c1 [13a] : > 116 µM

====

Tested on: YFV
method-summary: microbe, parasite or virus in culture
Format: cell-based, yellow fever virus
Rule for this label: MET means Yellow fever SI is less than 10; NOT MET means Yellow fever SI is at least 10.

Cc1ccc(NC(=O)c2ccccc2C(=O)NCc2ccc(-c3ccsc3)cc2)cc1 [7l] : NOT MET
Cc1ccc(NC(=O)c2nccnc2C(=O)Nc2ccc(F)cc2)c(-c2ccsc2)c1 [6g] : NOT MET
Cc1ccc(NC(=O)c2nccnc2C(=O)NCc2ccccc2-c2ccsc2)cc1 [6j] : NOT MET
Cc1ccc(NC(=O)c2nccnc2C(=O)Nc2ccccc2-c2cc(C)n[nH]2)cc1 [6n] : NOT MET
Cc1ccc(NC(=O)c2ccccc2C(=O)Nc2ccc(C)cc2-c2ccc(C)s2)cc1 [7e] : MET
Cc1cc(-c2ccccc2NC(=O)c2ccccc2C(=O)Nc2ccc(F)cc2)[nH]n1 [7m] : NOT MET
Cc1ccc(NC(=O)c2ccccc2C(=O)Nc2ccc(C)cc2-c2ccsc2)cc1 [7g] : NOT MET
Cc1ccc(NC(=O)c2ccccc2C(=O)NCc2ccccc2-c2ccsc2)cc1 [7j] : NOT MET
O=C(NCc1ccc(-c2ccsc2)cc1)c1ccccc1C(=O)Nc1ccc(F)cc1 [7k] : NOT MET
Cc1ccc(NC(=O)c2ccccc2NC(=O)c2ccc(F)cc2)c(-c2ccncc2)c1 [13c] : MET
Cc1ccc(NC(=O)c2ccccc2C(=O)Nc2ccccc2-c2cc(C)n[nH]2)cc1 [7n] : NOT MET
Cc1ccc(NC(=O)c2ccccc2NC(=O)c2ccc(F)cc2)c(-c2cccnc2)c1 [13d] : MET
O=C(NCc1ccccc1-c1ccsc1)c1nccnc1C(=O)Nc1ccc(F)cc1 [6i] : NOT MET
Cc1ccc(NC(=O)c2nccnc2C(=O)Nc2ccc(C)cc2-c2ccsc2)cc1 [6h] : MET
Cc1ccc(NC(=O)c2ccccc2NC(=O)c2ccc(F)cc2)c(-c2ccc(C)s2)c1 [13b] : MET
Cc1ccc(NC(=O)c2ccccc2C(=O)Nc2ccc(F)cc2)c(-c2ccc(C)s2)c1 [7f] : NOT MET

====

Reported CC50 by item:
method-summary: in vitro
protocol-conditions: chlorocebus aethiops
quantity: CC50

O=C(NCc1ccc(-c2ccsc2)cc1)c1ccccc1C(=O)Nc1ccc(F)cc1 : > 116 µM
Cc1ccc(NC(=O)c2ccccc2C(=O)Nc2ccccc2-c2cc(C)n[nH]2)cc1 : > 122 µM
Cc1ccc(NC(=O)c2ccccc2C(=O)Nc2ccc(C)cc2-c2cccs2)cc1 : > 117 µM
Cc1ccc(NC(=O)c2nccnc2C(=O)Nc2ccc(F)cc2)c(-c2ccc(C)s2)c1 : > 112 µM
Cc1ccc(NC(=O)c2nccnc2C(=O)Nc2ccc(F)cc2)c(-c2cccs2)c1 : > 116 µM
Cc1ccc(NC(=O)c2nccnc2C(=O)Nc2ccc(C)cc2-c2ccc(C)s2)cc1 : > 113 µM

====

method-summary: in vitro
protocol-conditions: chlorocebus aethiops
Labelling: CC50 at 168 h reported below 50 µM becomes Yes; at or above becomes No.

Cc1ccc(NC(=O)c2nccnc2C(=O)NCc2ccccc2-c2ccsc2)cc1 : Yes
Cc1ccc(NC(=O)c2nccnc2C(=O)Nc2ccccc2-c2cc(C)n[nH]2)cc1 : Yes
O=C(NCc1ccccc1-c1ccsc1)c1nccnc1C(=O)Nc1ccc(F)cc1 : No
Cc1ccc(NC(=O)c2ccccc2C(=O)Nc2ccc(C)cc2-c2ccsc2)cc1 : Yes
Cc1ccc(NC(=O)c2nccnc2C(=O)Nc2ccc(C)cc2-c2ccsc2)cc1 : Yes
Cc1ccc(NC(=O)c2ccccc2C(=O)Nc2ccc(F)cc2)c(-c2ccsc2)c1 : Yes

====

method-summary: in vitro
protocol-conditions: chlorocebus aethiops, Yellow fever CC50
Below, each entry is listed alongside its reported CC50.
quantity: CC50

Cc1ccc(NC(=O)c2ccccc2C(=O)NCc2ccc(-c3ccsc3)cc2)cc1 : > 117 µM
O=C(NCc1ccc(-c2ccsc2)cc1)c1ccccc1C(=O)Nc1ccc(F)cc1 : > 117 µM
Cc1cc(-c2ccccc2NC(=O)c2ccccc2C(=O)Nc2ccc(F)cc2)[nH]n1 : > 120 µM
Cc1ccc(NC(=O)c2nccnc2C(=O)Nc2ccc(F)cc2)c(-c2ccsc2)c1 : > 116 µM
Cc1ccc(NC(=O)c2ccccc2NC(=O)c2ccc(F)cc2)c(-c2ccc(C)s2)c1 [13b] : > 113 µM
Cc1ccc(NC(=O)c2ccccc2C(=O)Nc2ccc(F)cc2)c(-c2ccc(C)s2)c1 : > 113 µM
Cc1ccc(NC(=O)c2ccccc2NC(=O)c2ccc(F)cc2)c(-c2cccnc2)c1 [13d] : > 50 µM
Cc1ccc(NC(=O)c2ccccc2C(=O)Nc2ccc(F)cc2)c(-c2cccs2)c1 : > 37 µM
Cc1ccc(NC(=O)c2ccccc2C(=O)Nc2ccccc2-c2cc(C)n[nH]2)cc1 : > 122 µM

====

method-summary: in vitro
protocol-conditions: chlorocebus aethiops, Yellow fever CC50
quantity: CC50

Cc1ccc(NC(=O)c2nccnc2C(=O)Nc2ccc(C)cc2-c2ccsc2)cc1 : > 116 µM
Cc1ccc(NC(=O)c2nccnc2C(=O)Nc2ccc(F)cc2)c(-c2cccs2)c1 : > 116 µM
Cc1ccc(NC(=O)c2ccccc2C(=O)Nc2ccc(C)cc2-c2ccsc2)cc1 : > 117 µM
Cc1ccc(NC(=O)c2nccnc2C(=O)NCc2ccc(-c3ccsc3)cc2)cc1 : > 117 µM
O=C(NCc1ccc(-c2ccsc2)cc1)c1nccnc1C(=O)Nc1ccc(F)cc1 : > 116 µM
Cc1ccc(NC(=O)c2ccccc2NC(=O)c2ccc(F)cc2)c(-c2ccsc2)c1 [13a] : > 116 µM
Cc1ccc(NC(=O)c2ccccc2NC(=O)c2ccc(F)cc2)c(-c2ccncc2)c1 [13c] : > 50 µM
Cc1ccc(NC(=O)c2ccccc2C(=O)Nc2ccc(C)cc2-c2cccs2)cc1 : > 37 µM
Cc1ccc(NC(=O)c2nccnc2C(=O)Nc2ccccc2-c2cc(C)n[nH]2)cc1 : > 13.6 µM

====

Test system: YFV
method-summary: microbe, parasite or virus in culture
Assay type: cell-based, yellow fever virus
protocol-conditions: Yellow fever virus, Vero B, read-out: Yellow fever EC50
pEC50: −log10 of the molar value.
pEC50: recorded values
quantity: pEC50

Cc1ccc(NC(=O)c2ccccc2C(=O)Nc2ccc(C)cc2-c2ccc(C)s2)cc1 : 5.17
Cc1ccc(NC(=O)c2nccnc2C(=O)NCc2ccc(-c3ccsc3)cc2)cc1 : 4.67
Cc1ccc(NC(=O)c2nccnc2C(=O)Nc2ccc(F)cc2)c(-c2ccsc2)c1 : 4.97
Cc1ccc(NC(=O)c2ccccc2C(=O)Nc2ccccc2-c2cc(C)n[nH]2)cc1 : 5.24
Cc1ccc(NC(=O)c2ccccc2C(=O)Nc2ccc(F)cc2)c(-c2ccc(C)s2)c1 : 5.17

====

Tested on: DENV (serotype 2)
method-summary: microbe, parasite or virus in culture
Assay type: cell-based, Dengue virus serotype 2
Listing: Dengue SI of selected compounds
quantity: Dengue SI

Cc1ccc(NC(=O)c2nccnc2C(=O)NCc2ccccc2-c2ccsc2)cc1 : 1
Cc1ccc(NC(=O)c2nccnc2C(=O)Nc2ccc(F)cc2)c(-c2ccc(C)s2)c1 : 1
Cc1ccc(NC(=O)c2ccccc2C(=O)NCc2ccccc2-c2ccsc2)cc1 : 17
O=C(NCc1ccc(-c2ccsc2)cc1)c1nccnc1C(=O)Nc1ccc(F)cc1 : 1
Cc1cc(-c2ccccc2NC(=O)c2ccccc2C(=O)Nc2ccc(F)cc2)[nH]n1 : 1
O=C(NCc1ccccc1-c1ccsc1)c1nccnc1C(=O)Nc1ccc(F)cc1 : 2
Cc1ccc(NC(=O)c2nccnc2C(=O)Nc2ccc(C)cc2-c2ccc(C)s2)cc1 : 1
Cc1ccc(NC(=O)c2nccnc2C(=O)Nc2ccccc2-c2cc(C)n[nH]2)cc1 : 7
